Target: Histidine--tRNA ligase (Leishmania infantum)
Sequence (whole entry): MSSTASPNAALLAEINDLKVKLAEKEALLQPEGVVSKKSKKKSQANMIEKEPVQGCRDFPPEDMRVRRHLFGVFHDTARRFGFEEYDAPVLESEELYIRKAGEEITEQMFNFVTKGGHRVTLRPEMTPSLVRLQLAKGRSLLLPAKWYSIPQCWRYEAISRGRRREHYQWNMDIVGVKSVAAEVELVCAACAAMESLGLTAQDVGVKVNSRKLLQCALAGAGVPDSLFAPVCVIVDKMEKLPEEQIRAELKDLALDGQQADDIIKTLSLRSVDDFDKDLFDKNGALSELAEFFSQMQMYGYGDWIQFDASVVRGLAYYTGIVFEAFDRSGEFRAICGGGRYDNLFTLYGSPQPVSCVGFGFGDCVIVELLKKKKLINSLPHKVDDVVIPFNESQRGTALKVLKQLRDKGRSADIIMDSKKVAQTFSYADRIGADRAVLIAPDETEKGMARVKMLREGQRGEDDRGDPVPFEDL
Test: Leishmania infantum Histidine tRNA synthetase (LdHisRS)
Type: functional
Parameters: scale not given: in the data most compounds retested in dose-response had high values
Details: 30 µM
The campaign covered roughly 69,000 compounds. About 420 (0.61%) showed an effect of 50% or more. Only a selection was taken, and strong results are over-represented in it overall.
# thresholds on Percent Effect define classes: lower band = under 10%, central band = from 10% up to 30%, upper band = 30% and over

State the band of "Cc1nc2ccc(C(=O)N3CCn4c(C)nnc4C3)cc2nc1C"
central band

Now consider "NC(=O)c1cnc2n1CCN(C(=O)c1cccc(Cn3cccn3)c1)C2" .
central band

Now give it for "CC(=O)N1CCO[C@@H]2CN(Cc3cccc(Cl)c3)C[C@@H]2C1" too.
central band

Same thing, different compound: "Cc1nnc(NCCc2coc(-c3ccccc3)n2)c(C#N)c1C"
upper band

Can you check "CC(C)c1nnc2n1CCN(C(=O)c1ccc(Cn3cccc3)cc1)C2" next?
central band

Can you check "CC(=O)N1CCN(C(=O)Nc2ccc(Cl)cc2)[C@H]2CS(=O)(=O)C[C@H]21" next?
lower band

Thanks! And CCC1CN(CC(=O)NCCN2CCCC2)c2ccccc2S1 (centres undefined) ?
upper band

Moving on to the next compound: "COc1ccc(-c2nc(CCNCc3ccncc3)co2)cc1"
central band

Next:
Which class is correct for the following compound? "Cn1ccc(CS(=O)(=O)Cc2cccc(F)c2)cc1=O"
central band

Moving on to CC(C)c1ccc(C(CN)N2CCc3sccc3C2)cc1 (centres undefined)
central band
